The measurements presented in this section are drawn from paper PMC4741274.

- ASSAY_SYSTEM: α4β4 nAChR (Rattus norvegicus, UniProt P09483+P12392)
- ASSAY_PROTOCOL: Competition binding vs 500 pM [3H]EB, stably transfected HEK cells
- TEST_CONDITIONS: read-out: Ki α4β4; vs 500pM [3H]EB, HEK cells, Mean ± SEM of three
pKi: −log10 of the molar value.
RECORDED_ENDPOINT: pKi

Exercise: Can you look up the measured pKi of c1cncc(OC[C@@H]2CCCN2)c1 [H-11MNH] for me?
Key: 7.51

Exercise: Consider the compound shown here: c1ccc(OCC2CCCN2)nc1 (stereo not shown) What is its recorded pKi?
Key: < 5.00

Exercise: Value lookup for pKi; key = `c1cc(OC[C@@H]2CCCN2)ccn1`
Key: < 5.00

Exercise: Can you share its pKi? I mean this compound: CN1CCCC1COc1ccccn1 (stereo not shown)
Key: < 5.00

----------
- ASSAY_SYSTEM: α2β4 nAChR (Rattus norvegicus, UniProt P12389+P12392)
- Sequence (P12389 28-511): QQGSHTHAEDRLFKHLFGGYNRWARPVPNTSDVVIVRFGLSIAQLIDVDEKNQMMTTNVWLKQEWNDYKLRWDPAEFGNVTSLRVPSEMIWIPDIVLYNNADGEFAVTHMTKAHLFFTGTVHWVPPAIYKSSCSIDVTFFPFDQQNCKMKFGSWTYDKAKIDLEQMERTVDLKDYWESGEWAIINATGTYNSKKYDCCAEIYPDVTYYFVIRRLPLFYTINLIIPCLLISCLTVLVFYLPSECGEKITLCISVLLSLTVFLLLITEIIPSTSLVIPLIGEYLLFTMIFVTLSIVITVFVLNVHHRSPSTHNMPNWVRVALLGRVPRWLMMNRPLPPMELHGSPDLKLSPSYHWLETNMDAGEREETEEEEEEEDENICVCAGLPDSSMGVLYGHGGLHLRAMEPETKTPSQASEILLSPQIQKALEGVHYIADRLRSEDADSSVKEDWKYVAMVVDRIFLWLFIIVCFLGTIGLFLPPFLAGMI
- Sequence (P12392 21-495): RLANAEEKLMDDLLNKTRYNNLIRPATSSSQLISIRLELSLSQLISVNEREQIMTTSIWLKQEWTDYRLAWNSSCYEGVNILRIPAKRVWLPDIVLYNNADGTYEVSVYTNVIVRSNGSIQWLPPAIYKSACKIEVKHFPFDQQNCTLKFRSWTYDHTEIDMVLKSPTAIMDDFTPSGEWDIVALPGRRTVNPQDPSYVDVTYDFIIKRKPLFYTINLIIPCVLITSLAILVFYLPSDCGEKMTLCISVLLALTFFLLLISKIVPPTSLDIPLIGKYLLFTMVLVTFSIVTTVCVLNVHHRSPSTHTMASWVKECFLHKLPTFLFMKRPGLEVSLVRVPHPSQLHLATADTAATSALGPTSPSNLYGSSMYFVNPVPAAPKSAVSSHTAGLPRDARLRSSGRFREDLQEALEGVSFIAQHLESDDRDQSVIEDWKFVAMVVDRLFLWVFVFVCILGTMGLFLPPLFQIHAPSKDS
- ASSAY_PROTOCOL: Competition binding vs 500 pM [3H]EB, stably transfected HEK cells
RECORDED_ENDPOINT: pKi
pKi is defined as minus the log10 of a concentration measured in mol/L.

Exercise: Give α2β4 nAChR (Rattus norvegicus, UniProt P12389+P12392) pKi for CN1CCC[C@H]1COc1cccnc1 [A-84543, reference compound]
Key: 6.43

----------
- ASSAY_SYSTEM: α3β4 nAChR (Rattus norvegicus, UniProt P04757+P12392)
- Sequence (P12392 21-495): as above
- Sequence (P04757 26-499): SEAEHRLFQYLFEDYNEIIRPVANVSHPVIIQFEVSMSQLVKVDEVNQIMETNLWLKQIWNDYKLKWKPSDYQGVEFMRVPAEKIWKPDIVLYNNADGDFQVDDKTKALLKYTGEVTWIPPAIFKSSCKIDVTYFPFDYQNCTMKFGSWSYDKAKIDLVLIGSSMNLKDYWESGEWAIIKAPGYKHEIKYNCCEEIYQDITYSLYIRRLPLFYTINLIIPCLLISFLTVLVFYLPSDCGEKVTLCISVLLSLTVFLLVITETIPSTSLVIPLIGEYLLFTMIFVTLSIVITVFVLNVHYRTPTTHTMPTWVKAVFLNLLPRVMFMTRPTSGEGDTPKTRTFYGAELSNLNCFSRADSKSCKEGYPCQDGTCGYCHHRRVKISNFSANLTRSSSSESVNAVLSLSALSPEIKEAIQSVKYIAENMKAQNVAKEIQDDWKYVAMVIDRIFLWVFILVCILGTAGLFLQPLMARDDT
- ASSAY_PROTOCOL: Competition binding vs 500 pM [3H]EB, stably transfected HEK cells
RECORDED_ENDPOINT: Ki (µM)
Quick note: give the figure in µM, leave out the unit.

Exercise: Please give the measured Ki for this molecule: CN1CCC[C@H]1COc1cccnc1 [A-84543, reference compound]
Key: 1.9
